Each recorded value in this set is attributed to paper PMC4701504.

target_of_assay: recombinant HLA-DRA*01:01/DRB1*01:01 molecules (Homo sapiens, UniProt P01903+P01911, A100R/D57E/F55L/F60I/F76Y/I96L/L162R/M171V/P40L/Q125E/R42F/V115G/Y59C)
experiment: biochemical
Assay type: binding
condition_label: read-out: HLA-DRB1*01:01 Measured
Where a SMILES comes first, the peptide text is derived from it.
measurement_label: Kd

Looking up CSCC[C@H](NC(=O)[C@@H](N)CCCNC(=N)N)C(=O)NCC(=O)N[C@@H](C)C(=O)N[C@H](C(=O)N[C@H](C(=O)N[C@H](C(=O)N[C@@H](CCC(=O)O)C(=O)N[C@H](C(=O)O)C(C)C)[C@@H](C)O)[C@@H](C)O)C(C)C [M(134–142)] (H-RMGAVTTEV-OH) , I see its Kd listed as > 5000 nM

Looking up CSCC[C@H](NC(=O)CN)C(=O)N[C@@H](Cc1ccccc1)C(=O)N[C@@H](CC(N)=O)C(=O)N[C@@H](CCSC)C(=O)N[C@@H](CC(C)C)C(=O)N[C@@H](CO)C(=O)N[C@H](C(=O)N[C@H](C(=O)N[C@@H](CC(C)C)C(=O)O)C(C)C)[C@@H](C)O [PB1(410–419)] (H-GMFNMLSTVL-OH) , I see its Kd listed as 29 nM

Looking up CSCC[C@H](NC(=O)[C@@H](N)Cc1ccccc1)C(=O)N[C@@H](CCC(N)=O)C(=O)N[C@@H](C)C(=O)N[C@@H](CC(C)C)C(=O)N[C@@H](Cc1c[nH]cn1)C(=O)N[C@@H](CC(C)C)C(=O)N[C@@H](CC(C)C)C(=O)N[C@@H](CC(C)C)C(=O)O [NS2(99–107)] (H-FMQALHLLL-OH) , I see its Kd listed as > 5000 nM

* * *

target_of_assay: recombinant HLA-DRA*01:01/DRB1*01:01 molecules (Homo sapiens, UniProt P01903+P01911, A100R/D57E/F55L/F60I/F76Y/I96L/L162R/M171V/P40L/Q125E/R42F/V115G/Y59C)
experiment: biochemical
Assay type: binding
condition_label: read-out: HLA-DRB1*01:01 Measured
Where a SMILES comes first, the peptide text is derived from it.
measurement_label: pKd
Scale explanation: pKd corresponds to minus log10 of a concentration expressed in moles per litre.

As a guide, the following entries are already answered.
CSCC[C@H](NC(=O)CN)C(=O)N[C@@H](Cc1ccccc1)C(=O)N[C@@H](CC(N)=O)C(=O)N[C@@H](CCSC)C(=O)N[C@@H](CC(C)C)C(=O)N[C@@H](CO)C(=O)N[C@H](C(=O)N[C@H](C(=O)O)C(C)C)[C@@H](C)O [PB1(410–418)] (H-GMFNMLSTV-OH) | 7.47
CC[C@H](C)[C@H](NC(=O)[C@H](CC(C)C)NC(=O)[C@H](C)NC(=O)[C@H](CO)NC(=O)[C@H](CCCNC(=N)N)NC(=O)[C@H](C)NC(=O)[C@H](CC(C)C)NC(=O)[C@@H](N)Cc1ccccc1)C(=O)N[C@@H](CC(C)C)C(=O)O [NP(258–266)] (H-FLARSALIL-OH) | 7.01

Now consider the entry below.
Looking up CC[C@H](C)[C@H](NC(=O)[C@H](CCSC)NC(=O)[C@H](C)NC(=O)[C@H](CC(C)C)NC(=O)[C@@H](N)Cc1ccccc1)C(=O)N[C@H](C(=O)N[C@@H](Cc1ccc(O)cc1)C(=O)N[C@@H](CCSC)C(=O)N[C@H](C(=O)O)[C@@H](C)O)[C@@H](C)O [PB1(318–326)] (H-FLAMITYMT-OH) , I see its pKd listed as 6.25

* * *

target_of_assay: recombinant HLA-DRA*01:01/DRB1*01:01 molecules (Homo sapiens, UniProt P01903+P01911, A100R/D57E/F55L/F60I/F76Y/I96L/L162R/M171V/P40L/Q125E/R42F/V115G/Y59C)
experiment: biochemical
Assay type: binding
condition_label: pH 7; read-out: HLA-DRB1*01:01 Measured
measurement_label: Kd

Looking up LLQNSQVYS [NP(306–315)] , I see its Kd listed as > 5 µM

* * *

target_of_assay: HLA-A*02:01 (Homo sapiens, UniProt P04439, D140Y/D185E/D98H/E176V/E277Q/G131W/G231S/I119V/I121R/I166T/I218V/L300P/L318F/N151K/N90K/P208A/P217A/Q86G/Q94H/R138H/R169H/T345S)
experiment: biochemical
Format: binding
condition_label: […]; peptide concentration at half-saturation as approximation of KD; read-out: HLA-A*02:01 Measured
Where a SMILES comes first, the peptide text is derived from it.
measurement_label: Kd (nM)
Write the number in nM without appending the unit.

Looking up CC[C@H](C)[C@H](NC(=O)[C@@H]1CCCN1C(=O)[C@H](Cc1ccc(O)cc1)NC(=O)[C@H](CCCCN)NC(=O)[C@H](CCSC)NC(=O)[C@H](C)NC(=O)[C@H](CCSC)NC(=O)[C@H](CCSC)NC(=O)[C@@H](N)Cc1c[nH]c2ccccc12)C(=O)O [PB2(49–57)] (H-WMMAMKYPI-OH) , I see its Kd listed as 36

* * *

target_of_assay: HLA-A*02:01 (Homo sapiens, UniProt P04439, D140Y/D185E/D98H/E176V/E277Q/G131W/G231S/I119V/I121R/I166T/I218V/L300P/L318F/N151K/N90K/P208A/P217A/Q86G/Q94H/R138H/R169H/T345S)
experiment: biochemical
Assay type: binding
condition_label: […]; peptide concentration at half-saturation as approximation of KD; read-out: HLA-A*02:01 Measured
Where a SMILES comes first, the peptide text is derived from it.
measurement_label: Kd
Write your answer as a measured quantity: the number, then the unit.

As a guide, the following entries are already answered.
CC[C@H](C)[C@H](NC(=O)[C@H](CC(C)C)NC(=O)[C@@H](N)Cc1ccc(O)cc1)C(=O)N[C@@H](CCCNC(=N)N)C(=O)N[C@@H](C)C(=O)N[C@@H](CC(C)C)C(=O)N[C@H](C(=O)N[C@@H](CC(C)C)C(=O)N[C@@H](CC(N)=O)C(=O)N[C@H](C(=O)N[C@@H](CCSC)C(=O)O)[C@@H](C)O)[C@@H](C)O [PB1(217–227)] (H-YLIRALTLNTM-OH) | 46 nM
CC[C@H](C)[C@H](NC(=O)[C@@H]1CCCN1C(=O)[C@H](CCCNC(=N)N)NC(=O)[C@@H](NC(=O)[C@H](CCCCN)NC(=O)[C@H](CC(C)C)NC(=O)[C@H](Cc1c[nH]c2ccccc12)NC(=O)[C@H](CCC(=O)O)NC(=O)[C@H](CCSC)NC(=O)[C@H](CC(C)C)NC(=O)[C@@H](N)C(C)C)[C@@H](C)O)C(=O)O [M(41–51)] (H-VLMEWLKTRPI-OH) | 101 nM

Looking up CC[C@H](C)[C@H](NC(=O)[C@H](CO)NC(=O)[C@H](CC(C)C)NC(=O)[C@H](CCCCN)NC(=O)[C@H](CC(C)C)NC(=O)[C@H](C)NC(=O)[C@H](CC(=O)O)NC(=O)[C@H](CCSC)NC(=O)[C@H](CC(C)C)NC(=O)[C@H](CC(C)C)NC(=O)[C@@H](N)Cc1ccccc1)C(=O)O [PA(282–292)] (H-FLLMDALKLSI-OH) , I see its Kd listed as 24 nM

Looking up CSCC[C@H](NC(=O)CNC(=O)[C@H](CCSC)NC(=O)[C@H](CCSC)NC(=O)[C@@H](N)CCSC)C(=O)N[C@@H](Cc1ccccc1)C(=O)N[C@@H](CC(N)=O)C(=O)N[C@@H](CCSC)C(=O)N[C@@H](CC(C)C)C(=O)N[C@@H](CO)C(=O)N[C@H](C(=O)O)[C@@H](C)O [PB1(407–417)] (H-MMMGMFNMLST-OH) , I see its Kd listed as 36 nM

Looking up CC[C@H](C)[C@H](NC(=O)[C@@H]1CCCN1C(=O)[C@H](Cc1ccc(O)cc1)NC(=O)[C@H](CCCCN)NC(=O)[C@H](CCSC)NC(=O)[C@H](C)NC(=O)[C@H](CCSC)NC(=O)[C@H](CCSC)NC(=O)[C@@H](N)Cc1c[nH]c2ccccc12)C(=O)N[C@H](C(=O)N[C@@H](C)C(=O)O)[C@@H](C)O [PB2(49–59)] (H-WMMAMKYPITA-OH) , I see its Kd listed as 75 nM

Looking up CSCC[C@H](NC(=O)CNC(=O)[C@H](CCSC)NC(=O)[C@@H](N)CCSC)C(=O)N[C@@H](Cc1ccccc1)C(=O)N[C@@H](CC(N)=O)C(=O)N[C@@H](CCSC)C(=O)N[C@@H](CC(C)C)C(=O)N[C@@H](CO)C(=O)N[C@H](C(=O)N[C@H](C(=O)O)C(C)C)[C@@H](C)O [PB1(408–418)] (H-MMGMFNMLSTV-OH) , I see its Kd listed as 51 nM

Looking up CC[C@H](C)[C@H](NC(=O)[C@H](CCSC)NC(=O)[C@H](C)NC(=O)[C@H](CC(C)C)NC(=O)[C@@H](N)Cc1ccccc1)C(=O)N[C@H](C(=O)N[C@@H](Cc1ccc(O)cc1)C(=O)N[C@@H](CCSC)C(=O)N[C@H](C(=O)O)[C@@H](C)O)[C@@H](C)O [PB1(318–326)] (H-FLAMITYMT-OH) , I see its Kd listed as 253 nM

Looking up CSCC[C@H](NC(=O)[C@@H](N)CC(N)=O)C(=O)N[C@@H](CC(C)C)C(=O)N[C@@H](CO)C(=O)N[C@H](C(=O)N[C@H](C(=O)N[C@@H](CC(C)C)C(=O)NCC(=O)N[C@H](C(=O)O)C(C)C)C(C)C)[C@@H](C)O [PB1(413–421)] (H-NMLSTVLGV-OH) , I see its Kd listed as 16 nM

Looking up CC[C@H](C)[C@H](N)C(=O)N[C@H](C(=O)N[C@@H](CC(C)C)C(=O)N[C@@H](CCCCN)C(=O)N[C@@H](C)C(=O)N[C@@H](CC(N)=O)C(=O)N[C@@H](Cc1ccccc1)C(=O)N[C@@H](CO)C(=O)N[C@H](C(=O)O)C(C)C)[C@@H](C)CC [NS1(128–136)] (H-IILKANFSV-OH) , I see its Kd listed as 45 nM

Looking up CSCC[C@H](NC(=O)CN)C(=O)N[C@@H](Cc1ccccc1)C(=O)N[C@@H](CC(N)=O)C(=O)N[C@@H](CCSC)C(=O)N[C@@H](CC(C)C)C(=O)N[C@@H](CO)C(=O)N[C@H](C(=O)N[C@H](C(=O)O)C(C)C)[C@@H](C)O [PB1(410–418)] (H-GMFNMLSTV-OH) , I see its Kd listed as 23 nM

Looking up CSCC[C@H](NC(=O)CN)C(=O)N[C@@H](Cc1ccccc1)C(=O)N[C@@H](CC(N)=O)C(=O)N[C@@H](CCSC)C(=O)N[C@@H](CC(C)C)C(=O)N[C@@H](CO)C(=O)N[C@H](C(=O)N[C@H](C(=O)N[C@@H](CC(C)C)C(=O)O)C(C)C)[C@@H](C)O [PB1(410–419)] (H-GMFNMLSTVL-OH) , I see its Kd listed as 384 nM
